Data origin: patent US5962487A

assay: in vitro; format: cell-based; conditions: human, hi-hela cells
CC50 at 48 h for assorted molecules
QUANTITY KIND: CC50 at 48 h

>>> experimental_result("CCOC(=O)c1ccc(OCCC2CCN(c3ccc(C)nn3)CC2)cc1 [Pirodavir, reference compound]")
"> 10 µM"
>>> experimental_result("CCOC(=O)/C=C/[C@H](CCC(N)=O)NC(=O)[C@H](Cc1ccccc1)N(C)C(=O)[C@H](CC(C)C)NC(=O)c1cc(C)on1 [Compound 59]")
"> 100 µM"
>>> experimental_result("CCOC(=O)/C=C/[C@H](CCC(N)=O)NC(=O)[C@H](Cc1ccccc1)N(C)C(=O)[C@@H](NC(=O)SC1CCCC1)C(C)C [Compound 35]")
"> 100 µM"
>>> experimental_result("CCOC(=O)/C=C/[C@H](CCC(N)=O)NC(=O)[C@@H]1CCCN1C(=O)[C@H](CC(C)C)NC(=O)SCC [Compound 24]")
"> 100 µM"
>>> experimental_result("CCOC(=O)/C=C/[C@H](CCC(N)=O)NC(=O)[C@H](Cc1ccccc1)N(C)C(=O)[C@@H](NC(=O)SCC)C(C)C [Compound 34]")
"> 100 µM"
>>> experimental_result("CCOC(=O)/C=C/[C@H](CCC(N)=O)NC(=O)Cn1c(-c2ccccc2)ncc(N)c1=O [Compound 31]")
"> 320 µM"
>>> experimental_result("CCSC(=O)N[C@@H](CC(C)C)C(=O)N(C)[C@@H](Cc1ccccc1)C(=O)N[C@H](/C=C/C(=O)N(C)OC)CCC(N)=O [Compound 36]")
"> 100 µM"
>>> experimental_result("CCOC(=O)/C=C/[C@H](CCC(N)=O)NC(=O)[C@@H]1[C@@H](C)CCN1C(=O)[C@H](CC(C)C)NC(=O)OCc1ccccc1 [Compound 21]")
"> 320 µM"
